Reference source for all entries: patent US20140056918A1

Task for the reader: assign each of the following binders its reported IC50 (IL-8), ColI-induced IL-8 release from moDC, Donor 6.
- Assayed target: T1, Human OSCAR (osteoclast-associated receptor), full length, on cells (human)
- T1 chain: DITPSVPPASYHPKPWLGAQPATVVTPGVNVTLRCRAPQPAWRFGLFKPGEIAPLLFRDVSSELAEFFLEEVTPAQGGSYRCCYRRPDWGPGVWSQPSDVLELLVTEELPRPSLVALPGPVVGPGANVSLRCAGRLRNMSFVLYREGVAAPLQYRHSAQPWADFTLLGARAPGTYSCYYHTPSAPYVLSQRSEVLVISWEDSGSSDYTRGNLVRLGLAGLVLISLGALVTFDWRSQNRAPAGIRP
- Test method notes: cell-based or functional assay
Numbers only, in nM.

Example cases with answers are listed next.
Binder	Number
7F6A1 (antibody, V domains shown, Mouse anti-human OSCAR mAb; The heavy chain entry covers only VH-CH1 and the start of the hinge) VH: DVKLVESGGGLVKPGGSLKLSCAASGFTFSSYVMSWVRQTPEKRLEWVATISSGGSYTYYPDSVKGRFTISRDNAKNTLYLQMSSLKSEDTAMYYCTREGGNSPDYWGQGTTLTVSS VL: ENVLTQSPAIMSASPGEKVTMTCSVSSSISYMHWYRQKSFTSPQLWIYDTSKLASGVPGRFSGSGSGISYSLTISSMEAEDVATYYCFQGSEYPLTFGAGTKLELKR	1.28
16F56 (antibody, V domains shown, Fully human mAb from HuMab mice; also called 16F56 (Hu); 16F56A2) VH: QVQLVQSGAEVKKPGSSVKVSCKASGGTFSNYAISWVRQAPGQGLEWMGRIIPILGIAHNAQKFQDRVTITADKSTSTAYMELSSLRSEDTAVYYCASPSSGKGLPYWFFDLWGRGTLVTVSS VL: DIQMTQSPSFLSASVGDRVTITCRASQSISSYLNWYQQKPGKAPKLLIYAASSLQSGVPSRFSGSGSGTDFTLTISSLQPEDFATYYCQCGYSTPLTFGGGTKVEIKR	0.21

Entry 6F3A (antibody, V domains shown, Mouse anti-OSCAR mAb) VH: EVQLQQSGAELVKPGASVKLSCTASGFNIKDTYVHWVKQRPDQGLEWIGRIDPAIGNTKYDPKFRGKATITADSSSNTAYLQLSSLTSEDTAVYYCARLSYGNYGLDYSMDYWGQGTSVTVSS VL: DIVLTQSPATLSVTPGDSVSLSCRASQSITNNLHWYQQKSHESPRLLIKYASQSISGIPSRFRGSGSGTDFTLSINSVETEDFGVYFCQQSNTWPRTFGGGTKLEIKR — recorded IC50 (IL-8), ColI-induced IL-8 release from moDC, Donor 6 = 8.06
